Listing of recorded Relative Aktivität % by entry.
# Test system: Oxidoreduktase aus Metschnikowia zobellii
# protocol.details: Substrate spectrum (relative enzyme activity, standard assay of Example 5.1)
# Format: biochemical
Output spec: scalar in %, unitless text.

structure.notation | Relative Aktivität % / %
O=C1CCCCC1 | 3
CCOC(=O)CC(=O)CCl | 100
O=C(CCl)CCCl | 27
CC(=O)Cc1ccccc1 | 15
CCC(C)=O | 0

// next entry
Ask: Supply reported Relative Aktivität % belonging to this compound: O=C(CCl)c1cccc(Cl)c1
Reply: 5

---

# System: Oxidoreduktase aus Metschnikowia zobellii
# protocol.details: Substrate spectrum (relative enzyme activity, standard assay of Example 5.1)
# Format: biochemical
# protocol.conditions: activity with 2-Oxo-4-phenyl-buttersäureethylester set to 100%; NADPH; 25 °C
Listing of recorded Relative Aktivität % by entry.
Output spec: scalar in %, unitless text.

Recorded results for 2 molecules are shown here.
molecule | Relative Aktivität %, %
CCOC(=O)CCCCC(=O)CCCl [8-Chlor-6-oxo-octansäure-ethylester] | 50
CCOC(=O)C(=O)c1ccccc1 [Ethylphenylglyoxylat] | 50

// next entry
Ask: Supply reported Relative Aktivität % belonging to this molecule: CCOC(=O)C(=O)c1ccccc1Cl
Reply: 50
